Assay: Quantitative highthroughput screen to assess conditional lethalithy of P12 Ichikawa cells grown in RPMI1640 with untreated serum (RPMI+s) (AID 1963881); also: nearly all actives have a fitted effect of over 35% in size
Assay conditions: ATP luminescence, 48 h; viability; series mostly up to 45.8 µM
Records with an inconclusive call do not appear. Calls of active or inactive are those of the source. Calls follow the shape of the dose curve; as a rule, active = well fitted cell-killing curve with a large enough effect; inconclusive = small, poorly fitted or top-dose-only effect; inactive = flat fitted curve, though single readings scatter.
Give your call using only these classes: active, inactive

See these solved cases before continuing.
// query // outcome(item) with item = O=c1[nH]c2ccc(Cl)cc2c(N[C@@H]2CN3CCC2CC3)c1-c1nc2ccccc2[nH]1
// result active

// query Then this molecule: C[C@](O)(CS(=O)(=O)c1ccc(F)cc1)C(=O)Nc1ccc(C#N)c(C(F)(F)F)c1
// result inactive

// query Then this molecule: CC(=CCCC1=CCC(C2=CC(=O)OC2O)OC1O)CCC1=C(C)CCCC1(C)C (stereo unspecified)
// result inactive

Moving on to the next molecule.
// query // outcome(item) with item = COC1=C[C@@H]2[C@@H]3Cc4ccc(OC)c(O)c4[C@]2(CCN3C)CC1=O
// result inactive
